The measurements presented in this section are drawn from the supplement of paper PMC12494721.

Test system: Escherichia coli IAI1
assay_protocol: fold change of Putrescine concentration vs plate DMSO controls (fold change (ratio)); higher = more amine produced, active = hit call of the paper (significant change in both replicates, either direction)
condition_parameters: incubation time: 27 h, anaerobic, 37 °C
Structures can show the parent of a compound that is named as a salt.
readout_kind: fold change of Putrescine concentration
The response must contain the number and no unit.

A selection of reference data follows.
- molecule: "CC(COc1ccccc1)NN (configuration not stated) [Phenoxypropazine dihydrochloride] (20 µM)"
  fold change of Putrescine concentration: 1.01
- molecule: "O=C(O)c1cc(=O)[nH]c(=O)[nH]1 [Orotic acid] (20 µM)"
  fold change of Putrescine concentration: 0.995
- molecule: "CC(NCCc1ccc(O)cc1)C(O)c1ccc(O)cc1 (configuration not stated) [Ritodrine hydrochloride] (20 µM)"
  fold change of Putrescine concentration: 0.985
- molecule: "OCCN1CCN(CCCN2c3ccccc3Sc3ccc(Cl)cc32)CC1 [Perphenazine] (20 µM)"
  fold change of Putrescine concentration: 1.02
- molecule: "NC(N)=Nc1nc(CSCCN/C=N/S(=O)(=O)c2ccc(Br)cc2)cs1 [Ebrotidine] (20 µM)"
  fold change of Putrescine concentration: 0.974
- molecule: "O=C1Nc2ccccc2C1(c1ccc(O)cc1)c1ccc(O)cc1 [Oxyphenisatin] (20 µM)"
  fold change of Putrescine concentration: 1.04

Shift focus to the following entry.
Ask | # fold change of Putrescine concentration lookup, item O=C(O)COc1nn(Cc2ccccc2)c2ccccc12 [Bendazac] (20 µM)
Reply | 0.975

====

System: Klebsiella aerogenes DSM 30053
assay_protocol: fold change of Putrescine concentration vs plate DMSO controls (fold change (ratio)); higher = more amine produced, active = hit call of the paper (significant change in both replicates, either direction)
condition_parameters: incubation time: 27 h, anaerobic, 37 °C
Where a name gives a salt, the structure may show the parent alone.
readout_kind: fold change of Putrescine concentration
The response must contain the number and no unit.

- compound: "C[C@H](O)[C@H](O)[C@H]1CNc2[nH]c(N)nc(=O)c2N1 [Sapropterin dihydrochloride] (20 µM)"
  fold change of Putrescine concentration: 1.01
- compound: "CC(COc1ccccc1)NC(C)C(O)c1ccc(O)cc1 (stereo unspecified) [Isoxsuprine hydrochloride] (20 µM)"
  fold change of Putrescine concentration: 1
- compound: "NCCc1ccc(O)c(O)c1 [Dopamine hydrochloride] (20 µM)"
  fold change of Putrescine concentration: 0.996

Ask | # fold change of Putrescine concentration lookup, item CCN1CCCC1CNC(=O)c1cc(S(N)(=O)=O)ccc1OC (stereo unspecified) [Sulpiride] (20 µM)
Reply | 1.02

Ask | # fold change of Putrescine concentration lookup, item O=C(O)CSCC(=O)NC1CCSC1=O (stereo unspecified) [Erdosteine] (20 µM)
Reply | 1

Ask | # fold change of Putrescine concentration lookup, item COc1ccc2[nH]cc(CCNC(C)=O)c2c1 [Melatonin] (20 µM)
Reply | 0.999

====

Test system: Ruminococcus gnavus DSM 108212
assay_protocol: growth (OD595) fold change vs plate DMSO controls (fold change (ratio)); higher = more growth
condition_parameters: incubation time: 27 h, anaerobic, 37 °C
Entries and their measured growth follow.
The response must contain the number and no unit.

A selection of reference data follows.
- compound: "NS(=O)(=O)c1cc2c(cc1Cl)NCNS2(=O)=O [Hydrochlorothiazide] (20 µM)"
  value: 1.03
- compound: "CCN(CC)CC#CCOC(=O)C(O)(c1ccccc1)C1CCCCC1 (stereo not drawn) [Oxybutynin chloride] (20 µM)"
  value: 0.917

Shift focus to the following entry.
Ask | # growth lookup, item CCC(=O)OCC(=O)[C@@]1(OC(=O)CC)[C@@H](C)C[C@H]2[C@@H]3CCC4=CC(=O)C=C[C@]4(C)[C@@]3(Cl)[C@@H](O)C[C@@]21C [Beclomethasone dipropionate] (20 µM)
Reply | 1.22

====

Test system: Escherichia coli IAI1
assay_protocol: fold change of Cadaverine concentration vs plate DMSO controls (fold change (ratio)); higher = more amine produced, active = hit call of the paper (significant change in both replicates, either direction)
condition_parameters: incubation time: 27 h, anaerobic, 37 °C
readout_kind: fold change of Cadaverine concentration
The response must contain the number and no unit.

A selection of reference data follows.
- molecule: "COc1cc([S+](C)[O-])ccc1-c1nc2cccnc2[nH]1 (centres undefined) [Sulmazole] (20 µM)"
  fold change of Cadaverine concentration: 1.02
- molecule: "C[C@H](Cc1cc2c(c(C(N)=O)c1)N(CCCO)CC2)NCCOc1ccccc1OCC(F)(F)F [Silodosin] (20 µM)"
  fold change of Cadaverine concentration: 1.02
- molecule: "COc1ccc(CNc2nc(N3CCC[C@H]3CO)ncc2C(=O)NCc2ncccn2)cc1Cl [Avanafil] (20 µM)"
  fold change of Cadaverine concentration: 1.02

Ask | Return fold change of Cadaverine concentration measured with Escherichia coli IAI1 given this molecule: CCC(=O)c1c(O)cc(O)cc1O [Flopropione] (20 µM)
Reply | 1

====

Tested on: Klebsiella aerogenes DSM 30053
assay_protocol: fold change of Putrescine concentration vs plate DMSO controls (fold change (ratio)); higher = more amine produced, active = hit call of the paper (significant change in both replicates, either direction)
condition_parameters: incubation time: 27 h, anaerobic, 37 °C
Structures can show the parent of a compound that is named as a salt.
readout_kind: fold change of Putrescine concentration
The response must contain the number and no unit.

- compound: "CN1CCc2c(c3ccccc3n2Cc2ccccc2)C1 [Mebhydroline 1,5-naphtalenedisulfonate] (20 µM)"
  fold change of Putrescine concentration: 0.991
- compound: "CCOC(=O)[N-]c1c[n+](N2CCOCC2)no1 [Molsidomine] (20 µM)"
  fold change of Putrescine concentration: 1.02
- compound: "NC(=O)Cc1cccc(C(=O)c2ccccc2)c1N [Nepafenac] (20 µM)"
  fold change of Putrescine concentration: 0.993

Ask | # fold change of Putrescine concentration lookup, item CC(C)(C(=O)O)c1ccc(C(O)CCCN2CCC(C(O)(c3ccccc3)c3ccccc3)CC2)cc1 (stereo unspecified) [Fexofenadine hydrochloride] (20 µM)
Reply | 0.999

Ask | # fold change of Putrescine concentration lookup, item O=C1CCc2ccc(OCCCCN3CCN(c4cccc(Cl)c4Cl)CC3)cc2N1 [Aripiprazole] (20 µM)
Reply | 1.01

Ask | # fold change of Putrescine concentration lookup, item CC(C)(CO)[C@@H](O)C(=O)NCCCO [(D)-Panthenol] (20 µM)
Reply | 1.01

====

System: Escherichia coli IAI1
assay_protocol: fold change of Putrescine concentration vs plate DMSO controls (fold change (ratio)); higher = more amine produced, active = hit call of the paper (significant change in both replicates, either direction)
condition_parameters: incubation time: 27 h, anaerobic, 37 °C
Structures can show the parent of a compound that is named as a salt.
Assign class by fold change of Putrescine concentration: not lower than 1 means t; lower than 1 means f.

- compound: "CCCCCCNC(=O)n1cc(F)c(=O)[nH]c1=O [Carmofur] (20 µM)"
  target_entity: "Escherichia coli IAI1"
  assigned_label: "f"
- compound: "CC(=O)Oc1ccc(C(c2ccc(OC(C)=O)cc2)c2ccccn2)cc1 [Bisacodyl] (20 µM)"
  target_entity: "Escherichia coli IAI1"
  assigned_label: "f"
- compound: "COc1ccc(C[C@@H]2c3cc(OC)c(OC)cc3CC[N@+]2(C)CCC(=O)OCCCCCOC(=O)CC[N@@+]2(C)CCc3cc(OC)c(OC)cc3[C@H]2Cc2ccc(OC)c(OC)c2)cc1OC [Cisatracurium besylate] (20 µM)"
  target_entity: "Escherichia coli IAI1"
  assigned_label: "f"

# input for lookup
Ask | Is the recorded value of fold change of Putrescine concentration equal to or greater than 1 for this compound? CCN(CC)CCCC(C)Nc1c2ccc(Cl)cc2nc2ccc(OC)cc12 (configuration not stated) [Quinacrine dihydrochloride hydrate] (20 µM)
Reply | t

====

Entries and their measured fold change of Cadaverine concentration follow.
Tested on: Escherichia coli IAI1
assay_protocol: fold change of Cadaverine concentration vs plate DMSO controls (fold change (ratio)); higher = more amine produced, active = hit call of the paper (significant change in both replicates, either direction)
condition_parameters: incubation time: 27 h, anaerobic, 37 °C
Counter-ions that a name gives are not always drawn.
The response must contain the number and no unit.

A selection of reference data follows.
- molecule: "CC(=O)OCC(=O)[C@@]12OC3(CCCC3)O[C@@H]1C[C@H]1[C@@H]3CCC4=CC(=O)C=C[C@]4(C)[C@@]3(F)[C@@H](O)C[C@@]12C [Amcinonide] (20 µM)"
  value: 1.04
- molecule: "Cn1cc(C(=O)[C@@H]2CCc3[nH]cnc3C2)c2ccccc21 [Ramosetron hydrochloride] (20 µM)"
  value: 1.11
- molecule: "C[C@@H](c1ncncc1F)[C@](O)(Cn1cncn1)c1ccc(F)cc1F [Voriconazole] (20 µM)"
  value: 0.988

Ask | # fold change of Cadaverine concentration lookup, item CN1CCCN=C1/C=C/c1cccs1 [Pyrantel tartrate] (20 µM)
Reply | 1.03

Ask | # fold change of Cadaverine concentration lookup, item Cc1cc(NS(=O)(=O)c2ccc(N)cc2)nc(C)n1 [Sulfisomidine] (20 µM)
Reply | 0.993

Ask | # fold change of Cadaverine concentration lookup, item Cc1cn[nH]c1 [Fomepizole] (20 µM)
Reply | 1.02

Ask | # fold change of Cadaverine concentration lookup, item O=C(O)Cc1csc(-c2ccc(Cl)cc2)n1 [Fenclozic acid] (20 µM)
Reply | 0.986
